- Target entity: Phosphatidylinositol 4,5-bisphosphate 3-kinase catalytic subunit alpha isoform (Homo sapiens)
- Sequence (P42336 whole entry, canonical isoform): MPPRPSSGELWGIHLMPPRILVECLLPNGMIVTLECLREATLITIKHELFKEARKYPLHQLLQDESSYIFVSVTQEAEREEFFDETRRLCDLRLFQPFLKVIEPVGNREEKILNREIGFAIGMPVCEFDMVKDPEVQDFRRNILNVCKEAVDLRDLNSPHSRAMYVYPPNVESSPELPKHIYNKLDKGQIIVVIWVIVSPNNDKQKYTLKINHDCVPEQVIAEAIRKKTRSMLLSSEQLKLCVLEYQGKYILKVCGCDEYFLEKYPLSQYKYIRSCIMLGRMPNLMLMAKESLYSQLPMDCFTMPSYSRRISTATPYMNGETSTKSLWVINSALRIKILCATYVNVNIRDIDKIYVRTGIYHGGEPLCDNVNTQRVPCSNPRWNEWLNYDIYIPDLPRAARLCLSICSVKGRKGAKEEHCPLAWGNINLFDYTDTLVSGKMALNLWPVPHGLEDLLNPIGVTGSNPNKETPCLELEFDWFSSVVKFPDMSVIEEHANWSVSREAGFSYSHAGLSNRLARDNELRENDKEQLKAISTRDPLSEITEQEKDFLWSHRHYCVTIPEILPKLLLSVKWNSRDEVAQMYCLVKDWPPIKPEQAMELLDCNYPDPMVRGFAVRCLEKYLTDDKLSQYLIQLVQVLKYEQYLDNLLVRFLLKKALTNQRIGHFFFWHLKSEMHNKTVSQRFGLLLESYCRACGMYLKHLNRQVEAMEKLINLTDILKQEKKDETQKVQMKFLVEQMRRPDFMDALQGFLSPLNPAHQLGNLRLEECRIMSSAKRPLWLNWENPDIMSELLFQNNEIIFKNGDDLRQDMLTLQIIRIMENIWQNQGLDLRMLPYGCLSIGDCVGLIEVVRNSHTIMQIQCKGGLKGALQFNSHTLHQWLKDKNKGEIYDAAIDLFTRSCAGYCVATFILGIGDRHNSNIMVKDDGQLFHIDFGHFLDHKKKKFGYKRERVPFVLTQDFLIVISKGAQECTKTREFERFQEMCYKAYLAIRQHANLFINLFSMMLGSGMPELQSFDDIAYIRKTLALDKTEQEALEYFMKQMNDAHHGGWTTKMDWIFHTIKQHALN
- Assay protocol: Enzyme Assay
Experimental readout: IC50 (nM)

Compound	IC50, nM
COC[C@H]1OC(=O)C(=CN2CCCC2C(=O)O)C2C(=O)C(=O)C3=C([C@H](OC(C)=O)C[C@]4(C)C(=O)CC[C@@H]34)[C@]21C (some centres undefined) [WmC20-pro, 1]	68

A: COC[C@H]1OC(=O)C(CSCC(NC(C)=O)C(=O)O)=C2C(=O)C(=O)C3=C([C@H](OC(C)=O)C[C@]4(C)C(=O)CCC34)[C@]21C (some centres undefined) [WmC20-cys, 3]
B: COC[C@H]1OC(=O)C(=CN(C)CCCCCC(=O)O)C2C(=O)C(=O)C3=C([C@H](OC(C)=O)C[C@]4(C)C(=O)CC[C@@H]34)[C@]21C (some centres undefined) [WmC20-NMeHA, 4]
Between the entries labelled A and B , which has a larger IC50 value on record? # reply format: chosen label
A
